Assay: Circular dichroism (CD) spectroscopy of HABD2 peptides in Milli-Q water (Example 1)
Assay type: physicochemical
Conditions: 0.5 mM in Milli-Q water; equations 1-3
Bridges are numbered along the chain shown (N, C = ends).
property_measured: fH fraction helicity
Form field (numeric): enter value without unit.

Lookup result for H-(cyclo-6,10)-VSKLR[EQLVK]RKQN-NH2 (H-VSKLREQLVKRKQN-NH2; lactam 6-10; SMILES CC(C)C[C@H](NC(=O)[C@H](CCCCN)NC(=O)[C@H](CO)NC(=O)[C@@H](N)C(C)C)C(=O)N[C@@H](CCCNC(=N)N)C(=O)N[C@H]1CCC(=O)NCCCC[C@@H](C(=O)N[C@@H](CCCNC(=N)N)C(=O)N[C@@H](CCCCN)C(=O)N[C@@H](CCC(N)=O)C(=O)N[C@@H](CC(N)=O)C(N)=O)NC(=O)[C@H](C(C)C)NC(=O)[C@H](CC(C)C)NC(=O)[C@H](CCC(N)=O)NC1=O) [Compound 135] ; measured fH fraction helicity: 0.22

Entry H-(cyclo-4,8)-VSK[ERSQK]VKRKQN-NH2 (H-VSKERSQKVKRKQN-NH2; lactam 4-8; SMILES CC(C)[C@H](N)C(=O)N[C@@H](CO)C(=O)N[C@@H](CCCCN)C(=O)N[C@H]1CCC(=O)NCCCC[C@@H](C(=O)N[C@H](C(=O)N[C@@H](CCCCN)C(=O)N[C@@H](CCCNC(=N)N)C(=O)N[C@@H](CCCCN)C(=O)N[C@@H](CCC(N)=O)C(=O)N[C@@H](CC(N)=O)C(N)=O)C(C)C)NC(=O)[C@H](CCC(N)=O)NC(=O)[C@H](CO)NC(=O)[C@H](CCCNC(=N)N)NC1=O) [Compound 133] , fH fraction helicity reported as 0.17

Hello, the source for this data is patent US10562935B2, in case you need it.
